Test system: Escherichia coli NIHJ JC-2
assay_comment: Antimicrobial test in vitro (MIC, agar plate dilution method)
Assay type: cell-based
Set-up: unit not given here
conditions: E. coli NIHJ JC-2; 1×10^6 cells/ml
measurement_type: minimum inhibitory concentration (MIC)

Known minimum inhibitory concentration (MIC) results, listed for orientation:
{"molecule": "CC1Cc2c(N3CCOCC3)c(F)c(N)c3c(=O)c(C(=O)O)cn1c23 (stereo not drawn) [Compound 3]", "minimum inhibitory concentration (MIC)": 0.2}
{"molecule": "CC1Cc2c(N3CCCC3)c(F)c(N)c3c(=O)c(C(=O)O)cn1c23 (stereo not drawn) [Compound 6]", "minimum inhibitory concentration (MIC)": 0.78}
{"molecule": "CC1Cc2c(N3CCNCC3)c(F)c(N)c3c(=O)c(C(=O)O)cn1c23 (stereo not drawn) [Compound 2]", "minimum inhibitory concentration (MIC)": 0.1}

P = CC1Cc2c(N3CCN(C)CC3)c(F)c(N)c3c(=O)c(C(=O)O)cn1c23 (stereo not drawn) [Compound 1]
Q = CC1Cc2c(N3CCC(O)CC3)c(F)c(N)c3c(=O)c(C(=O)O)cn1c23 (stereo not drawn) [Compound 5]
R = CC1Cc2c(N3CCCCC3)c(F)c(N)c3c(=O)c(C(=O)O)cn1c23 (stereo not drawn) [Compound 4]
hey, can you rank those molecules up there by minimum inhibitory concentration (MIC)? biggest number first please To answer, arrange all of the labels according to the requested order.
R, Q, P

----------
Test system: Pseudomonas aeruginosa ATCC 10145
assay_comment: Antimicrobial test in vitro (MIC, agar plate dilution method)
Assay type: cell-based
Design: unit not given here
conditions: P. aeruginosa ATCC 10145; 1×10^6 cells/ml
measurement_type: minimum inhibitory concentration (MIC)

{"compound": "CC1Cc2c(N3CCNCC3)c(F)c(N)c3c(=O)c(C(=O)O)cn1c23 (stereo not drawn) [Compound 2]", "minimum inhibitory concentration (MIC)": 0.39}
{"compound": "CC1Cc2c(N3CCC(O)CC3)c(F)c(N)c3c(=O)c(C(=O)O)cn1c23 (stereo not drawn) [Compound 5]", "minimum inhibitory concentration (MIC)": 6.25}

I = CC1Cc2c(N3CCOCC3)c(F)c(N)c3c(=O)c(C(=O)O)cn1c23 (stereo not drawn) [Compound 3]
II = CC1Cc2c(N3CCCC3)c(F)c(N)c3c(=O)c(C(=O)O)cn1c23 (stereo not drawn) [Compound 6]
III = CC1Cc2c(N3CCCCC3)c(F)c(N)c3c(=O)c(C(=O)O)cn1c23 (stereo not drawn) [Compound 4]
IV = CC1Cc2c(N3CCN(C)CC3)c(F)c(N)c3c(=O)c(C(=O)O)cn1c23 (stereo not drawn) [Compound 1]
Please put the entries in order of rising minimum inhibitory concentration (MIC). To answer, arrange all of the labels according to the requested order.
IV, I, II, III
(IV: 0.78, I: 3.13, II: 6.25, III: 12.5)

----------
Tested on: Acinetobacter calcoaceticus AC-54
assay_comment: Antimicrobial test in vitro (MIC, agar plate dilution method)
Assay type: cell-based
Parameters: unit not given here
conditions: A. calcoaceticus AC-54; 1×10^6 cells/ml
measurement_type: minimum inhibitory concentration (MIC)

{"molecule": "CC1Cc2c(N3CCNCC3)c(F)c(N)c3c(=O)c(C(=O)O)cn1c23 (stereo not drawn)", "measurement_type": "minimum inhibitory concentration (MIC)", "endpoint_value": 0.78}
{"molecule": "CC1Cc2c(N3CCCC3)c(F)c(N)c3c(=O)c(C(=O)O)cn1c23 (stereo not drawn)", "measurement_type": "minimum inhibitory concentration (MIC)", "endpoint_value": 6.25}
{"molecule": "CC1Cc2c(N3CCN(C)CC3)c(F)c(N)c3c(=O)c(C(=O)O)cn1c23 (stereo not drawn)", "measurement_type": "minimum inhibitory concentration (MIC)", "endpoint_value": 0.39}
{"molecule": "CC1Cc2c(N3CCC(O)CC3)c(F)c(N)c3c(=O)c(C(=O)O)cn1c23 (stereo not drawn)", "measurement_type": "minimum inhibitory concentration (MIC)", "endpoint_value": 3.13}

A = CC1Cc2c(N3CCOCC3)c(F)c(N)c3c(=O)c(C(=O)O)cn1c23 (stereo not drawn)
B = CC1Cc2c(N3CCCCC3)c(F)c(N)c3c(=O)c(C(=O)O)cn1c23 (stereo not drawn)
For the pair A and B , which entry has the numerically smaller recorded minimum inhibitory concentration (MIC)? Lab note: record the label of whichever item you select.
A
(A: 0.78, B: 6.25)
